Please respond with reported log10 IC50 for every item in the list.
Tested on: HUVECs (human umbilical vein endothelial cells)
PROCEDURE DETAILS: Inhibitory effect of fumagillol derivative on HUVEC cell growth (colorimetry)
Assay type: cell-based
EXPERIMENTAL PARAMETERS: Homo sapiens, HUVEC, HUVEC growth, cultured 2–3 days with compound, absorption at 490 nm; read-out: IC50
Lab note - IC50 converted to log10 from values in ng/mL.

INPUT: Recorded log10 IC50 of COc1c(C)cc(NCC(=O)O[C@@H]2CC[C@]3(CO3)[C@@H]([C@@]3(C)OC3CC=C(C)C)[C@@H]2OC)cc1C (stereo partly shown) [Ex. 15] , please.
OUTPUT: -1.22

INPUT: Recorded log10 IC50 of CO[C@@H]1[C@H](OC(=O)CNC(C)CCC=C(C)C)CC[C@]2(CO2)[C@H]1[C@@]1(C)OC1CC=C(C)C (stereo partly shown) [Ex. 58] , please.
OUTPUT: 2.62

INPUT: Recorded log10 IC50 of COC(CNCC(=O)O[C@@H]1CC[C@]2(CO2)[C@@H]([C@@]2(C)OC2CC=C(C)C)[C@@H]1OC)OC (stereo partly shown) [Ex. 77] , please.
OUTPUT: 2.52

INPUT: Recorded log10 IC50 of COc1c(C(C)C)cc(NCC(=O)O[C@@H]2CC[C@]3(CO3)[C@@H]([C@@]3(C)OC3CC=C(C)C)[C@@H]2OC)cc1C(C)C (stereo partly shown) [Ex. 14] , please.
OUTPUT: 1.15

INPUT: Recorded log10 IC50 of CCCCC(C)NCC(=O)O[C@@H]1CC[C@]2(CO2)[C@@H]([C@@]2(C)OC2CC=C(C)C)[C@@H]1OC (stereo partly shown) [Ex. 51] , please.
OUTPUT: 4.51

INPUT: Recorded log10 IC50 of CO[C@@H]1[C@H](OC(=O)CNc2ccc(N)cc2)CC[C@]2(CO2)[C@H]1[C@@]1(C)OC1CC=C(C)C (stereo partly shown) [Ex. 22, 6-O-(4-aminoaniline)acetyl fumagillol] , please.
OUTPUT: 2.25

INPUT: Recorded log10 IC50 of CO[C@@H]1[C@H](OC(=O)CNCC(C)=O)CC[C@]2(CO2)[C@H]1[C@@]1(C)OC1CC=C(C)C (stereo partly shown) [Ex. 71, 6-O-(2-oxo-propylamino)acetyl fumagillol] , please.
OUTPUT: 2.41

INPUT: Recorded log10 IC50 of COc1cc(C#N)c(NCC(=O)O[C@@H]2CC[C@]3(CO3)[C@@H]([C@@]3(C)OC3CC=C(C)C)[C@@H]2OC)cc1OC (stereo partly shown) [Ex. 6] , please.
OUTPUT: 1.28

INPUT: Recorded log10 IC50 of CCC(C)CNCC(=O)O[C@@H]1CC[C@]2(CO2)[C@@H]([C@@]2(C)OC2CC=C(C)C)[C@@H]1OC (stereo partly shown) [Ex. 46] , please.
OUTPUT: 3.41

INPUT: Recorded log10 IC50 of CCCC(C)NCC(=O)O[C@@H]1CC[C@]2(CO2)[C@@H]([C@@]2(C)OC2CC=C(C)C)[C@@H]1OC (stereo partly shown) [Ex. 49] , please.
OUTPUT: 1.64

INPUT: Recorded log10 IC50 of COC(=O)C(NCC(=O)O[C@@H]1CC[C@]2(CO2)[C@@H]([C@@]2(C)OC2CC=C(C)C)[C@@H]1OC)C(C)(C)C (stereo partly shown) [Ex. 75] , please.
OUTPUT: 3.38

INPUT: Recorded log10 IC50 of CO[C@@H]1[C@H](OC(=O)CCl)CC[C@]2(CO2)[C@H]1[C@@]1(C)OC1CC=C(C)C (stereo partly shown) [Intermediate, 6-O-(chloro)acetyl fumagillol] , please.
OUTPUT: 3.30

INPUT: Recorded log10 IC50 of COC(=O)C(C)NCC(=O)O[C@@H]1CC[C@]2(CO2)[C@@H]([C@@]2(C)OC2CC=C(C)C)[C@@H]1OC (stereo partly shown) [Ex. 74] , please.
OUTPUT: 2.90

---

Test system: HUVECs (human umbilical vein endothelial cells)
PROCEDURE DETAILS: Inhibitory effect of fumagillol derivative on HUVEC cell growth (colorimetry)
Type: cell-based
EXPERIMENTAL PARAMETERS: Homo sapiens, HUVEC, HUVEC growth, cultured 2–3 days with compound, absorption at 490 nm; read-out: IC50
OUTCOME MEASURE: log10(IC50) (log10 of the value in ng/mL)
Lab note - IC50 converted to log10 from values in ng/mL.

INPUT: Notebook entry, HUVECs (human umbilical vein endothelial cells) assay: log10(IC50) of CCCCNCC(=O)O[C@@H]1CC[C@]2(CO2)[C@@H]([C@@]2(C)OC2CC=C(C)C)[C@@H]1OC (stereo partly drawn) = ?
OUTPUT: 3.51

INPUT: Notebook entry, HUVECs (human umbilical vein endothelial cells) assay: log10(IC50) of COc1ccc(NCC(=O)O[C@@H]2CC[C@]3(CO3)[C@@H]([C@@]3(C)OC3CC=C(C)C)[C@@H]2OC)cc1 (stereo partly drawn) = ?
OUTPUT: -2.15

INPUT: Notebook entry, HUVECs (human umbilical vein endothelial cells) assay: log10(IC50) of CO[C@@H]1C(OC(=O)CNC2CCC2)CC[C@](O)(CCl)[C@H]1C1(C)OC1CC=C(C)C (stereo in doubt) = ?
OUTPUT: -1.43

INPUT: Notebook entry, HUVECs (human umbilical vein endothelial cells) assay: log10(IC50) of CO[C@@H]1[C@H](OC(=O)CNC2CCCC2)CC[C@]2(CO2)[C@H]1[C@@]1(C)OC1CC=C(C)C (stereo partly drawn) = ?
OUTPUT: 2.40

INPUT: Notebook entry, HUVECs (human umbilical vein endothelial cells) assay: log10(IC50) of COc1ccc(NCC(=O)O[C@@H]2CC[C@]3(CO3)[C@@H]([C@@]3(C)OC3CC=C(C)C)[C@@H]2OC)cc1C#N (stereo partly drawn) = ?
OUTPUT: -0.20

INPUT: Notebook entry, HUVECs (human umbilical vein endothelial cells) assay: log10(IC50) of CCOC(=O)CNCC(=O)O[C@@H]1CC[C@]2(CO2)[C@@H]([C@@]2(C)OC2CC=C(C)C)[C@@H]1OC (stereo partly drawn) = ?
OUTPUT: 3.08

INPUT: Notebook entry, HUVECs (human umbilical vein endothelial cells) assay: log10(IC50) of CCC(C)NCC(=O)O[C@@H]1CC[C@]2(CO2)[C@@H]([C@@]2(C)OC2CC=C(C)C)[C@@H]1OC (stereo partly drawn) [Ex. 45, 6-O-(sec-butylamino)acetyl fumagillol] = ?
OUTPUT: 2.57

INPUT: Notebook entry, HUVECs (human umbilical vein endothelial cells) assay: log10(IC50) of `CO[C@@H]1[C@H](OC(=O)CNc2ccc(Cl)cc2)CC[C@]2(CO2)[C@H]1[C@@]1(C)O[C@@H]1CC=C(C)C` = ?
OUTPUT: 2.24

INPUT: Notebook entry, HUVECs (human umbilical vein endothelial cells) assay: log10(IC50) of CCOc1cc(C)c(NCC(=O)O[C@@H]2CC[C@]3(CO3)[C@@H]([C@@]3(C)OC3CC=C(C)C)[C@@H]2OC)cc1C(C)C (stereo partly drawn) = ?
OUTPUT: -0.77

INPUT: Notebook entry, HUVECs (human umbilical vein endothelial cells) assay: log10(IC50) of COc1ccc(NCC(=O)O[C@@H]2CC[C@]3(CO3)[C@@H]([C@@]3(C)OC3CC=C(C)C)[C@@H]2OC)nn1 (stereo partly drawn) = ?
OUTPUT: -1.72

INPUT: Notebook entry, HUVECs (human umbilical vein endothelial cells) assay: log10(IC50) of CO[C@@H]1C(OC(=O)CNC2CC2)CC[C@](O)(CCl)[C@H]1C1(C)OC1CC=C(C)C (stereo in doubt) = ?
OUTPUT: -1.85

INPUT: Notebook entry, HUVECs (human umbilical vein endothelial cells) assay: log10(IC50) of CO[C@@H]1[C@H](OC(=O)CNc2ccc(C(F)(F)F)cc2)CC[C@]2(CO2)[C@H]1[C@@]1(C)OC1CC=C(C)C (stereo partly drawn) = ?
OUTPUT: 2.11

---

Test system: HUVECs (human umbilical vein endothelial cells)
PROCEDURE DETAILS: Inhibitory effect of fumagillol derivative on HUVEC cell growth (colorimetry)
Format: cell-based
EXPERIMENTAL PARAMETERS: Homo sapiens, HUVEC, HUVEC growth, cultured 2–3 days with compound, absorption at 490 nm; read-out: IC50
Output Condition met for records whose IC50 is lower than 100 ng/mL, Condition not met for records at or above 100 ng/mL.

INPUT: Lab log: compare recorded IC50 with 100 ng/mL; is it strictly lower for CO[C@@H]1[C@H](OC(=O)CNc2ccc(OCCOC(C)=O)cc2)CC[C@]2(CO2)[C@H]1[C@@]1(C)OC1CC=C(C)C (stereo partly drawn) [Ex. 8] ?
OUTPUT: Condition met

INPUT: Lab log: compare recorded IC50 with 100 ng/mL; is it strictly lower for CC/C=C(C)/C=C/CNCC(=O)O[C@@H]1CC[C@]2(CO2)[C@@H]([C@@]2(C)OC2CC=C(C)C)[C@@H]1OC (stereo partly drawn) [Ex. 57] ?
OUTPUT: Condition not met

INPUT: Lab log: compare recorded IC50 with 100 ng/mL; is it strictly lower for CO[C@@H]1[C@H](OC(=O)CNC2CCCCC2)CC[C@]2(CO2)[C@H]1[C@@]1(C)OC1CC=C(C)C (stereo partly drawn) [Ex. 66, 6-O-(cyclohexylamino)acetyl fumagillol] ?
OUTPUT: Condition met

INPUT: Lab log: compare recorded IC50 with 100 ng/mL; is it strictly lower for COc1cc(NCC(=O)O[C@@H]2CC[C@]3(CO3)[C@@H]([C@@]3(C)OC3CC=C(C)C)[C@@H]2OC)cc(OC)c1OC (stereo partly drawn) [Ex. 2] ?
OUTPUT: Condition met

INPUT: Lab log: compare recorded IC50 with 100 ng/mL; is it strictly lower for COc1ccc(NCC(=O)O[C@@H]2CC[C@]3(CO3)[C@@H]([C@@]3(C)OC3CC=C(C)C)[C@@H]2OC)cc1OC(C)C (stereo partly drawn) [Ex. 12] ?
OUTPUT: Condition met
